- System: HIV-1 (Gag) gene expression
- measurement.description: HIV-1 (Gag) gene expression in HeLa rtTA-HIV-ΔMls cells, p24CA ELISA dose response
- Type: cell-based, HIV-1 (LAI)
- condition.info: Human immunodeficiency virus 1, HeLa, read-out: IC50 (nM) HeLa rtTA-HIV-ΔMls
quantity.kind: IC50 (nM)
# number only, unit nM dropped from output

Examples with their reported IC50 follow.
C[C@]12CC[C@H](O)C[C@H]1CC[C@@H]1[C@@H]2CC[C@]2(C)[C@@H](c3ccc(=O)oc3)CC[C@]12O [Bufalin]	5
C[C@H]1O[C@@H](O[C@H]2[C@@H](O)C[C@H](O[C@H]3[C@@H](O)C[C@H](O[C@H]4CC[C@@]5(C)[C@H](CC[C@@H]6[C@@H]5CC[C@]5(C)[C@@H](C7=CC(=O)OC7)CC[C@]65O)C4)O[C@@H]3C)O[C@@H]2C)C[C@H](O)[C@@H]1O [Digitoxin]	25

Documented IC50 of CO[C@H]1[C@H](O)[C@H](O[C@H]2CC[C@@]3(C=O)[C@H](CC[C@@H]4[C@@H]3CC[C@]3(C)[C@@H](C5=CC(=O)OC5)CC[C@]43O)C2)O[C@@H](C)[C@@H]1O [Peruvoside] : 80

====

- System: HIV-1 (Gag) gene expression
- measurement.description: HIV-1 (Gag) gene expression in HeLa rtTA-HIV-ΔMls cells, p24CA ELISA dose response
- Format: cell-based, HIV-1 (LAI)
- condition.info: Human immunodeficiency virus 1, HeLa, read-out: IC50 (nM) HeLa rtTA-HIV-ΔMls
quantity.kind: IC50
Number plus unit, in that order.

C[C@]12CC[C@H](O)C[C@H]1CC[C@@H]1[C@@H]2C[C@@H](O)[C@]2(C)[C@@H](C3=CC(=O)OC3)CC[C@]12O	520 nM

Value of IC50 reported for the compound "C[C@@H]1O[C@@H](O[C@H]2C[C@@H](O)[C@]3(CO)[C@H]4[C@H](O)C[C@]5(C)[C@@H](C6=CC(=O)OC6)CC[C@]5(O)[C@@H]4CC[C@]3(O)C2)[C@H](O)[C@H](O)[C@H]1O" is 25 nM

"CC(=O)O[C@H]1[C@H]2O[C@]23[C@@H]2CC[C@@H]4C[C@@H](O)CC[C@]4(C)[C@H]2CC[C@]3(C)[C@H]1c1ccc(=O)oc1" has a reported IC50 of 24 nM

For this compound ( CC(=O)O[C@H]1C[C@H](O[C@H]2[C@@H](O)C[C@H](O[C@H]3[C@@H](O)C[C@H](O[C@H]4CC[C@@]5(C)[C@H](CC[C@@H]6[C@@H]5C[C@@H](O)[C@]5(C)[C@@H](C7=CC(=O)OC7)CC[C@]65O)C4)O[C@@H]3C)O[C@@H]2C)O[C@H](C)[C@H]1O[C@@H]1O[C@H](CO)[C@@H](O)[C@H](O)[C@H]1O [Lanatoside C] ), measured IC50 is 170 nM

====

- Test system: HIV-1 Rev
- measurement.description: Immunoblot of HIV-1 Rev (p19) in HeLa rtTA-HIV-ΔMls cells
- Type: cell-based
quantity.kind: Rev accumulation

C[C@H]1O[C@@H](O[C@H]2[C@@H](O)C[C@H](O[C@H]3[C@@H](O)C[C@H](O[C@H]4CC[C@@]5(C)[C@H](CC[C@@H]6[C@@H]5C[C@@H](O)[C@]5(C)[C@@H](C7=CC(=O)OC7)CC[C@]65O)C4)O[C@@H]3C)O[C@@H]2C)C[C@H](O)[C@@H]1O	reduce Rev accumulation
CC(=O)O[C@H]1C[C@H](O[C@H]2[C@@H](O)C[C@H](O[C@H]3[C@@H](O)C[C@H](O[C@H]4CC[C@@]5(C)[C@H](CC[C@@H]6[C@@H]5C[C@@H](O)[C@]5(C)[C@@H](C7=CC(=O)OC7)CC[C@]65O)C4)O[C@@H]3C)O[C@@H]2C)O[C@H](C)[C@H]1O[C@@H]1O[C@H](CO)[C@@H](O)[C@H](O)[C@H]1O [Lanatoside C]	reduce Rev accumulation

Where these numbers come from: paper PMC5770468
